experimental-target: HLA-C*06:02
assay: IEDB peptide-MHC binding, purified MHC/direct/fluorescence; filed as Kd, often an IC50 or EC50 that approximates it; bounds were set here for any values at or beyond the usual limits of such assays
test-parameters: source organism: Entamoeba histolytica HM-1:IMSS
property-label: Kd (nM)
One number for each entry, in nM.

Q: GET /values?readout=Kd&item= CAMFWYHYI
Result: 1260

---

experimental-target: HLA-B*57:01
assay: IEDB peptide-MHC binding, purified MHC/direct/fluorescence; filed as Kd, often an IC50 or EC50 that approximates it; bounds were set here for any values at or beyond the usual limits of such assays
test-parameters: source organism: Vibrio parahaemolyticus
property-label: Kd

Q: GET /values?readout=Kd&item= NSSYWRQGY
Result: ≥ 20 µM

---

experimental-target: HLA-A*24:02
assay: IEDB peptide-MHC binding, purified MHC/competitive/fluorescence; bounds were set here for any values at or beyond the usual limits of such assays
test-parameters: source organism: Sudan ebolavirus
Give pIC50 for every item shown.
Answers are plain numbers, as −log10 of the molar value.

The cases that follow already have their pIC50 on record.
seq-string	pIC50
LLQLPRDKF	5.32
FGAQHSTTL	4.22

# return pIC50 for each item in the list
1. GFPRCRYVH
2. YTILNRKAI
3. GLMHNQNAL

Result:
[5.91, 5.04, 4.44]

---

Give Kd for every item shown.
experimental-target: HLA-A*68:01
assay: IEDB peptide-MHC binding, purified MHC/competitive/radioactivity; filed as Kd, often an IC50 or EC50 that approximates it; bounds were set here for any values at or beyond the usual limits of such assays
test-parameters: source organism: Mammarenavirus juninense

seq-string	property-label	result
SWPVQCPLDH	Kd	≥ 70.1 µM

Note: attention shifts to another entry.
Q: GET /values?readout=Kd&item= PLLCNLNKSH
Result: ≥ 45.8 µM

---

experimental-target: HLA-B*15:03
assay: IEDB peptide-MHC binding, purified MHC/competitive/radioactivity; filed as Kd, often an IC50 or EC50 that approximates it; bounds were set here for any values at or beyond the usual limits of such assays
test-parameters: source organism: Vaccinia virus Copenhagen
pKd: −log10 of the molar value.
property-label: pKd

Q: Lab request: please report pKd under test system HLA-B*15:03 for SMVQILSSL
Result: ≤ 4.11

---

experimental-target: HLA-B*46:01
assay: IEDB peptide-MHC binding, purified MHC/direct/fluorescence; filed as Kd, often an IC50 or EC50 that approximates it; bounds were set here for any values at or beyond the usual limits of such assays
test-parameters: source organism: Cryptosporidium parvum Iowa II
property-label: Kd

Q: GET /values?readout=Kd&item= KQMSQPYAV
Result: ≥ 20 µM

---

experimental-target: HLA-A*11:01
assay: IEDB peptide-MHC binding, purified MHC/competitive/radioactivity; filed as Kd, often an IC50 or EC50 that approximates it; bounds were set here for any values at or beyond the usual limits of such assays
test-parameters: source organism: Dengue virus 4 Philippines/H241/1956
property-label: Kd (nM)
One number for each entry, in nM.

The cases that follow already have their Kd on record.
seq-string	Kd [nM]
KILAKAIFK	79.3
MVEPWLSSK	648
SALTLHWFRK	18.4

Note: attention shifts to another entry.
Q: GET /values?readout=Kd&item= VTFKVPHAK
Result: 53.2
